- Tested on: β-galactosidase in CMV-LacZ C2C12 myoblasts
- run-description: CMV-LacZ secondary screen in C2C12 myoblasts (β-Gal stabilizing assay)
- Assay type: cell-based, mouse
- details: 20 uM; CMV-LacZ C2C12 myoblasts
// bucketize CMV-LACZ in Myoblasts (β-galactosidase activity relative to DMSO): bucket A (below 0.8), bucket B (0.8 to below 1), bucket C (1 or more)

Worked examples, 3 compounds total:
>>> discrete_label("Cc1ccc(N2C(=O)C3NN=C(C(=O)OCc4ccccc4)C3C2=O)cc1 (centres unmarked)")
"bucket C"
>>> discrete_label("Cc1ccc(NS(=O)(=O)c2cccc(C(=O)O)c2)cc1S(=O)(=O)N1CCOCC1")
"bucket C"
>>> discrete_label("N/C(=N\\OC(=O)c1cccc(C(F)(F)F)c1)c1cnccn1")
"bucket C"

Dear colleague, I would appreciate it if you could identify the bin for `CCOc1ccc2nc(Cl)sc2c1` and reply at your convenience. bucket B

Dear colleague, I would appreciate it if you could identify the bin for `Cc1cccc2c(N=Nc3ccc(S(=O)(=O)Nc4ccc(Cl)cc4)cc3[N+](=O)[O-])c(O)[nH]c12` and reply at your convenience. bucket A

Dear colleague, I would appreciate it if you could identify the bin for `CN(CC(=O)Nc1cccc(F)c1)C(=O)c1ccc(-c2ccc(Cl)cc2)o1` and reply at your convenience. bucket B

Dear colleague, I would appreciate it if you could identify the bin for COc1ccc(CNC(=O)C2CCCN(S(=O)(=O)c3c(C)noc3/C=C/N(C)C)C2)cc1 (centres unmarked) and reply at your convenience. bucket A

Dear colleague, I would appreciate it if you could identify the bin for `Cc1cccc(C)c1NCC(=O)N1CCN(Cc2ccccc2)CC1.Cl` and reply at your convenience. bucket B

Dear colleague, I would appreciate it if you could identify the bin for `COc1ccccc1NS(=O)(=O)c1cc(NC(=O)c2ccc(Cl)nc2)ccc1N1CCCC1` and reply at your convenience. bucket C
